Target: human GPR91 receptor (Homo sapiens, UniProt Q9BXA5)
Construct: expressed in transfected cells; host or cells: CHO-K1 NFAT cells
Sequence (Q9BXA5 1-334): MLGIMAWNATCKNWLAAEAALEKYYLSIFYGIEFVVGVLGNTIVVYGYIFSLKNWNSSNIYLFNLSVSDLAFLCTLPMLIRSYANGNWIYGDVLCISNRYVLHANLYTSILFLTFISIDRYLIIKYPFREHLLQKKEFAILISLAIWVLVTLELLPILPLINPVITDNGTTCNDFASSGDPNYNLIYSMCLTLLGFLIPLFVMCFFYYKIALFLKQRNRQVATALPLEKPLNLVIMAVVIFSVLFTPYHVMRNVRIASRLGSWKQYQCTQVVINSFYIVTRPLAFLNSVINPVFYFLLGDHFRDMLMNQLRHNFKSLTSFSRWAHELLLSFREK
Test: Human GPR91 calcium mobilization assay
Assay type: cell-based
Conditions: CHO-K1 NFAT cells over expressing human GPR91 receptor; Fluo4 AM; agonist sodium succinate; flex station; read-out: hGPR91 IC50 (μM)*
A collection of compounds and their measured IC50

# count of solved cases: 5
Form field: reported IC50 of `O=C(O)CCc1cccc(Oc2ccc(Oc3cccc4c3CNCC4)cc2C(F)(F)F)c1`
> 10 µM

Now the compound `O=C(O)CCc1cccc(Oc2ccc(Oc3cccc4cccnc34)cc2C(F)(F)F)c1`
> 10 µM

Now the compound `O=C(O)Cc1cccc(Oc2ccc(Oc3ccc4[nH]nc(C(=O)O)c4c3)cc2C(F)(F)F)c1`
< 5 µM

Now the compound `Cc1nc2ccc(Oc3ccc(Oc4cccc(CC(=O)O)c4)c(C4CC4)c3)cc2n1C1COC1`
< 5 µM

Now the compound `O=C(O)CCc1cccc(Oc2ccc(Oc3cccn4ccnc34)cc2C(F)(F)F)c1`
> 10 µM

Continuing:
Form field: reported IC50 of `Cc1ncc2c(Oc3ccc(Oc4cccc(CC(=O)O)c4)c(C(F)(F)F)c3)cccn12`
5 to 10 µM

Now the compound `NC(=O)Cc1cccc(Oc2ccc(Oc3cccc4ccncc34)cc2C(F)(F)F)c1`
< 5 µM

Now the compound `O=C(O)Cc1cccc(Oc2ccc(Oc3ccc4cnn(C5COC5)c4c3)cc2C(F)(F)F)c1`
< 5 µM

Now the compound `O=C(O)Cc1cccc(Oc2ccc(Oc3ccc4cnc(C5COC5)n4c3)cc2C(F)(F)F)c1`
5 to 10 µM

====

biological target: human GPR91 receptor (Homo sapiens, UniProt Q9BXA5); construct: expressed in transfected cells; host or cells: CHO-K1 NFAT cells; experiment: Human GPR91 calcium mobilization assay; assay type: cell-based; conditions: CHO-K1 NFAT cells over expressing human GPR91 receptor; Fluo4 AM; agonist sodium succinate; flex station; read-out: hGPR91 IC50 (μM)*
A collection of compounds and their measured IC50

Form field: reported IC50 of `FC(F)(F)c1cc(Oc2cccc3ccncc23)ccc1Oc1cccc(Cc2nnn[nH]2)c1`
5 to 10 µM

Continuing:
Form field: reported IC50 of `Cn1ncc2c(Oc3ccc(Oc4cccc(CC(=O)O)c4)c(C(F)(F)F)c3)cccc21`
< 5 µM

Now the compound `O=C(O)Cc1cccc(Oc2ccc(Oc3cccc4ncncc34)cc2C(F)(F)F)c1`
< 5 µM

Values from patent US11098026B2
